- experimentalProtocol: antimalarial activity against Dd2 strain (AID 2302)
- reportedConditions: P. falciparum Dd2 in RBCs, LDH growth readout, 72 h; at 2 µM; stronger effect = higher value
Classification field: y = growth inhibition at or over 60%; n = growth inhibition under 60%.

Input line: Could you please find out whether O=C(NC1CC1)c1ccc(N2CCOc3ccc(Cl)cc32)s1 has growth inhibition that meets 60% or exceeds it?
Output line: y

Input line: Does O=C(Nc1cccc(CN2CCCN(Cc3ccccc3)CC2)c1)c1ccc(Cl)c(Cl)c1 have a reported growth inhibition of at least 60%?
Output line: n

Input line: Decide: is the reported value of growth inhibition for Cc1ccc(-c2nnc3c4ccccc4c(C)nn23)cc1S(=O)(=O)N1CCN(CCO)CC1 equal to or greater than 60%?
Output line: y

Input line: Is the recorded value of growth inhibition equal to or greater than 60% for this compound? CC(C)c1ccc(NC(=O)c2ccc(CN3CCCN(Cc4cccc(O)c4)CC3)cc2)cc1
Output line: n

Input line: Does the reported growth inhibition for CSc1ccc(CN2CCC(CNC(=O)c3cc(-c4ccccc4F)cs3)C2)cc1 (centres undefined) fall at or above the 60% mark?
Output line: n

Input line: Evaluate CCNc1cc(C(=O)N[C@@H](Cc2ccccc2)[C@H](O)CNC(C)(C)CCCC(C)C)c(F)c(N2CCCS2(=O)=O)c1 : growth inhibition at minimum 60%?
Output line: y

These entries and their values trace back to PubChem BioAssay.
